system_under_test: T1, IRF4 DBD S114N (Homo sapiens, UniProt Q15306 20-132, S114N)
T1 sequence: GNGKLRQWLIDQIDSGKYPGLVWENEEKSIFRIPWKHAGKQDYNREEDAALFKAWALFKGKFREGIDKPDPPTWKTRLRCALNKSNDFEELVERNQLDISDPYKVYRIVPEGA
test_summary: SPR steady state; FP: PBS + 0.05% Tween20, 5 nM DNA, 1 h, room temperature; SPR: Biacore S200, SA chip, protein 0.1-4500 nM, running buffer not given in material; errors are SD
settings: protein: recombinant; tags: N-terminal His8-linker-His8-TEV, cleaved; label: 3' biotin; hairpin, TTTT loop
readout_name: Kd
Please make sure the unit comes right after the number.

For reference, reported Kd for CTTGGTTTCACTTCCTGCGTTTTCGCAGGAAGTGAAACCAAG (structured_DNA) [IRE hairpin (biotin)] stands at 291 nM
